Readings of inhibition for the listed compounds
Test system: Escherichia coli
Experiment: Inhibition of Escherichia coli M15 DXR at 100 uM
Just the number in %, nothing appended.

O=c1ccn(O)c(=O)n1Cc1ccccc1 : 0
O=C(Cc1ccccc1)NO : 26
O=c1cc(Cc2ccccc2)[nH]cc1O : 0
O=c1n(O)ccn1Cc1ccccc1 : 19
Oc1cnc(Cc2ccccc2)nc1O : 30
[O-][n+]1cccc(-c2ccccc2)c1 : 0
Nc1cc(-c2ccccc2)ccc1O : 0
O=C(O)c1cc(-c2ccccc2)ccc1O : 0

## Task Fill: inhibition (Escherichia coli) for this compound `O=c1cc(Cc2ccccc2)occ1O`
## Result 0

## Task State recorded inhibition with Escherichia coli, entry `O=C(O)CCc1ccc(O)c(O)c1` , no comment.
## Result 26.2

###

Tested on: Pseudomonas aeruginosa
Assay: Antibacterial activity against Pseudomonas aeruginosa H45006 after 24 hrs by NCCLS method
Format: functional
Details: H45006, 24 h
Could you mark each record y if its MIC falls strictly under 200 µM, and n if it equals or exceeds it?

These recorded examples may help you get a feel for the data.
CC1(C)S[C@@H]2[C@H](NC(=O)[C@H](N)c3ccccc3)C(=O)N2[C@H]1C(=O)O [AMPICILLIN] : n
O=P(O)(O)CCc1ccc(O)c(O)c1 : n
O=CN(O)CCCP(=O)(O)O [FOSMIDOMYCIN] : y

We next turn to a different compound, shown below.
## Task Would you kindly verify if MIC of O=c1ccc(-c2ccccc2)cn1O [1-HYDROXY-5-PHENYLPYRIDIN-2(1H)-ONE] is strictly less than 200 µM?
## Result y

###

Consider the following molecules and their measured pIC50 readings.
Assay: Inhibition of Escherichia coli M15 DXR
Please keep in mind that pIC50 is minus log10 of the molar concentration; only the number is needed.

Worked examples follow.
Oc1ccc(Cc2ccccc2)cc1O : 4.65
O=c1ccc(-c2ccccc2)cn1O [1-HYDROXY-5-PHENYLPYRIDIN-2(1H)-ONE] : 5.85
O=CN(O)CCCP(=O)(O)O : 7.10

Attention now turns to another entry.
## Task Write down pIC50 measured for item `Oc1ccc(-c2ccccc2)cn1`
## Result 4.12

###

Test system: Bacillus anthracis
Test: Antibacterial activity against Bacillus anthracis Sterne after 24 hrs by NCCLS method
Type: functional
Please assign FALSE whenever MIC is at or above 100 µM, and TRUE whenever it is below.

These solved cases illustrate the format of a correct answer.
CC1(C)S[C@@H]2[C@H](NC(=O)[C@H](N)c3ccccc3)C(=O)N2[C@H]1C(=O)O : TRUE
O=c1ccc(-c2ccccc2)cn1O [1-HYDROXY-5-PHENYLPYRIDIN-2(1H)-ONE] : TRUE
Oc1ccc(-c2ccccc2)cc1O : FALSE
O=P(O)(O)CCc1ccc(O)c(O)c1 : FALSE
Oc1ccc(Cc2ccccc2)cc1O : FALSE

Pending compound:
## Task Given the entry `NC[C@H]1O[C@H](O[C@H]2[C@H](O)[C@@H](O[C@H]3O[C@H](CO)[C@@H](O)[C@H](N)[C@H]3O)[C@H](N)C[C@@H]2N)[C@H](O)[C@@H](O)[C@@H]1O` , would its reported MIC be below 100 µM?
## Result TRUE

###

Measured MIC, listed per entry.
Tested on: Micrococcus luteus
Assay: Antibacterial activity against Micrococcus luteus WT after 24 hrs by NCCLS method
Format: functional
Return type: number; implicit unit µM.

## Task Consider the compound O=c1ccc(-c2ccccc2)cn1O [1-HYDROXY-5-PHENYLPYRIDIN-2(1H)-ONE] and give its recorded MIC.
## Result 100

## Task Consider the compound `Oc1ccc(Cc2ccccc2)cc1O` and give its recorded MIC.
## Result 200

## Task Input `Oc1ccc(-c2ccccc2)cc1O` , output reported MIC.
## Result 200

## Task Identify measured MIC associated with `CC1(C)S[C@@H]2[C@H](NC(=O)[C@H](N)c3ccccc3)C(=O)N2[C@H]1C(=O)O`
## Result 1

## Task Return reported MIC. Input compound: `NC[C@H]1O[C@H](O[C@H]2[C@H](O)[C@@H](O[C@H]3O[C@H](CO)[C@@H](O)[C@H](N)[C@H]3O)[C@H](N)C[C@@H]2N)[C@H](O)[C@@H](O)[C@@H]1O`
## Result 20

###

Test system: Pseudomonas aeruginosa
Assay: Antibacterial activity against Pseudomonas aeruginosa H45006 after 24 hrs by NCCLS method
Format: functional
Details: H45006, 24 h
quantity_kind: MIC

Examples with their reported MIC follow.
NC[C@H]1O[C@H](O[C@H]2[C@H](O)[C@@H](O[C@H]3O[C@H](CO)[C@@H](O)[C@H](N)[C@H]3O)[C@H](N)C[C@@H]2N)[C@H](O)[C@@H](O)[C@@H]1O : 200 µM
Oc1ccc(-c2ccccc2)cc1O : 200 µM

## Task // fetch MIC for `Oc1ccc(Cc2ccccc2)cc1O` ; system: Pseudomonas aeruginosa
## Result 200 µM
